Values compiled from a melting point compilation (Tetko et al.; mined from patent text by program, amines drawn as free bases though some values may be those of a salt).

Quantity: melting point

CCCCCCCCCCCCCCCCNc1ccc(C(=O)NS(C)(=O)=O)cc1 ... 173 to 175 °C
CCN1C(=O)CCCc2cc(Nc3ncc(Cl)c(Nc4cc(Cl)ccc4OC)n3)c(OC)cc21 ... 194 to 196 °C
O=C(O)Cc1c[nH]c(-c2cc3nc(C(=O)O)c(=O)[nH]c3cc2[N+](=O)[O-])n1 ... > 300 °C
CN1C(=O)C(=O)c2cccnc21 ... 162 to 163 °C
CCCCCCC(=N)NC(=S)Nc1ccc(F)cc1 ... 75 to 76 °C

Query: I would be grateful if you could share the reported melting point for CC(=O)Nc1cc2c(cc1Oc1ccc(F)cc1F)C(=O)CC2c1ccccc1 (configuration not stated) .
Result: 163 °C

Query: I would be grateful if you could share the reported melting point for Cn1cccc1C1=C(Cl)C(=O)c2cccnc2C1=O .
Result: 168 to 169 °C

###

Recorded melting point by entry

Here is how some compounds turned out for melting point.
COc1cc(C2CCN(C(=O)CN)CC2)ccc1Nc1ncc2ccc(-c3ccccc3N(C)S(C)(=O)=O)n2n1 ... 106 to 119 °C
CC(Br)c1cc2ccccc2s1 (stereo not given) ... 53 °C
N#CC(C#N)=C1c2ccsc2-c2c1cc([N+](=O)[O-])cc2[N+](=O)[O-] ... 244 to 246 °C
CN1C(=O)CN=C(c2ccccc2F)c2c1ccc(NC(=O)Nc1ccc(Cl)cc1)c2Cl ... 285 °C
O=C(Nc1ccc(OCCN2CCOCC2)c2ccccc12)c1ccc2snnc2c1 ... 188 to 190 °C

In the following, a different compound is considered.
Query: I would be grateful if you could share the reported melting point for CN(c1cc(OC(F)(F)F)cc2cc(C3=NCC(CN4CCOCC4)S3)[nH]c12)S(=O)(=O)c1cccs1 (stereo not given) .
Result: 165 to 166 °C

###

Recorded melting point by entry

COc1ccc(N(CC(O)CO)S(=O)(=O)c2c(F)c(F)c(F)c(F)c2F)cc1 (stereo not drawn) ... 130 to 131 °C

Query: I would be grateful if you could share the reported melting point for N#Cc1ccc(NC(=O)NC(=O)c2c(F)cccc2F)c(Cl)c1Cl .
Result: 285 to 287 °C

Query: I would be grateful if you could share the reported melting point for Cc1ccc(S(=O)(=O)N(c2ccc(F)cc2[N+](=O)[O-])C(C)C)cc1 .
Result: 129 to 130 °C

###

Recorded melting point by entry

Here is how some molecules turned out for melting point.
CCCC(=O)N1CCc2cc(S(=O)(=O)N3CCN(c4cccc(Cl)c4)CC3)ccc21 ... 267 to 268 °C
Cn1c(=O)[nH]c(=O)c2c1ncn2CCCCCCO ... 219 to 220 °C
N#Cc1ccc2c(c1)N(C1CC1)CNS2(=O)=O ... 178 to 180 °C
CC(C)Oc1ccccc1C(=O)NC(=O)NC1CN2CCC1CC2 (stereo not drawn) ... 171 to 175 °C

Query: I would be grateful if you could share the reported melting point for O=C(O)c1ccc(Cn2ccc(OCc3ccccc3)c(Br)c2=O)cc1 .
Result: 251 to 256 °C

Query: I would be grateful if you could share the reported melting point for CN(C)CC1CCn2c(c(C3=C(c4csc5ccccc45)C(=O)NC3=O)c3ccccc32)C1 (stereo not drawn) .
Result: 285 to 286 °C

Query: I would be grateful if you could share the reported melting point for CC(C)NCCOc1ccc(-c2nc3ccccc3c(=O)[nH]2)nc1-c1ccc(S(C)(=O)=O)cc1 .
Result: 188 to 189 °C

###

Quantity: melting point

Here is how some compounds turned out for melting point.
CN1CCC2(C)c3cc(O)cc(Cl)c3N(C)C12 (stereo unspecified) ... 152 to 154 °C
CC(C)OCCOc1c(-c2ccc(S(N)(=O)=O)cc2)cnn(-c2ccc(F)c(F)c2)c1=O ... 54 to 56 °C
CN(C(=S)Nc1nc(OCC(F)(F)F)cc(OCC(F)(F)F)n1)c1ccc(C(F)(F)F)cc1 ... 109 to 111 °C
CCc1cn(C2CC(O)C(CCC(=O)Cc3c(Cl)cccc3Cl)O2)c(=O)[nH]c1=O (stereo unspecified) ... 229 to 230 °C
CC1=C(Br)C=CC(Cl)(C=NO)C1 (stereo unspecified) ... 77 to 78 °C

In the following, a different compound is considered.
Query: I would be grateful if you could share the reported melting point for CCOC(=O)c1nc2c(=O)[nH]c3cc(C(F)(F)F)ccc3n2c1P(=O)(OCC)OCC .
Result: 198 to 199 °C

###

Recorded melting point by entry

O=C(Nc1ccc2ccc(Oc3ccccc3)nc2n1)c1ccco1 ... 167 °C

Query: I would be grateful if you could share the reported melting point for CCCCCCCCCCCCCCCCCCN(C)S(=O)(=O)c1ccc(Cl)c([N+](=O)[O-])c1 .
Result: 86 to 87 °C

Query: I would be grateful if you could share the reported melting point for Cc1ccc(Cl)cc1N1C(=O)CN=C1SCc1ccccc1 .
Result: 140 to 142 °C

Query: I would be grateful if you could share the reported melting point for Cc1cc(-c2ccc(C(F)(F)F)cc2)cn2c(-c3nc(-c4ccc(S(N)(=O)=O)s4)no3)cnc12 .
Result: 285 °C

Query: I would be grateful if you could share the reported melting point for COC(=O)Cc1ccccc1N(Cc1ccc(Cl)cc1)S(C)(=O)=O .
Result: 73 to 75 °C

Query: I would be grateful if you could share the reported melting point for COc1cc(Cc2cnc(N[N+](=O)[O-])[nH]c2=O)ccn1 .
Result: 194 to 196 °C

Query: I would be grateful if you could share the reported melting point for COc1ccc(Nc2nc(-c3ccncc3)cs2)nc1 .
Result: 213 to 214 °C

###

Recorded melting point by entry

Here is how some compounds turned out for melting point.
Cn1nc2ccccc2c1C(=O)NCCCN1CCC(c2ccc(F)cc2)CC1 ... 136 to 140 °C
COc1cc([C@@H](O)[C@@H](C)N2CCC(O)(c3ccccc3)CC2)ccc1OCc1ccccc1 (relative stereo) ... 131 to 132 °C
O=C(O)c1cccc(C(=O)O)c1[N+](=O)[O-] ... 100 to 101 °C

Query: I would be grateful if you could share the reported melting point for COc1cc2nc(N3CCN(C(=O)C4CCCC4)CC3)nc(N)c2cc1OC .
Result: 256 to 259 °C

Query: I would be grateful if you could share the reported melting point for CCOC(=O)Sc1cc(C)nc(C(Cl)(Cl)Cl)n1 .
Result: 33 to 34.5 °C

Query: I would be grateful if you could share the reported melting point for Cc1cc(N)ccc1NCCNC(N)=O .
Result: 143 °C

Query: I would be grateful if you could share the reported melting point for Cc1ccc2c(c1)C(c1ccc(C(C)C)cc1)C(C)(C)O2 (stereo not given) .
Result: 65 to 66 °C

Query: I would be grateful if you could share the reported melting point for C/C(=N\OC(=O)c1ccccn1)[C@H]1CC[C@H]2[C@@H]3CCC4=CC(=O)CC[C@]4(C)[C@H]3CC[C@]12C .
Result: 172 to 174 °C

Query: I would be grateful if you could share the reported melting point for CCc1ccc2oc(Cc3cccc(OC)c3)c(CCNC(C)=O)c2c1 .
Result: 102 °C

Query: I would be grateful if you could share the reported melting point for CCC(=O)c1ccc(=O)[nH]c1CC .
Result: 138 to 140 °C

###

Quantity: melting point

Here is how some molecules turned out for melting point.
CC(C)(C)c1ccc(OCCOc2ccccc2[N+](=O)[O-])c([N+](=O)[O-])c1 ... 114 to 116 °C
CC(C)c1n[nH]c(Cl)c1C=NC(C#N)=C(N)C#N ... 145 to 150 °C
O=c1ncc(Cl)cn1CCCl ... 167 to 168 °C
CC1(C)OC(=O)Nc2ccc(-c3ccc(F)cc3)cc21 ... 232 to 233 °C
COc1ccc2[nH]c(C(=O)N3CC(CCl)c4c3cc(N)c3ccccc43)cc2c1 (stereo unspecified) ... 250 to 255 °C

Query: I would be grateful if you could share the reported melting point for c1cc(CNc2nccc3ccccc23)cc(Nc2nnc3c4c(cccc24)-c2ccccc2-3)c1 .
Result: 149 to 152 °C

Query: I would be grateful if you could share the reported melting point for Cc1oc(-c2ccco2)nc1COc1ccc(COc2nn(Cc3ccccc3)cc2C(=O)O)cc1-c1ccccc1 .
Result: 181 to 182 °C

Query: I would be grateful if you could share the reported melting point for O=C(c1ccccc1)c1ccc(NC(=O)c2cc(Cl)ccc2Cl)cc1 .
Result: 150 to 153 °C

###

Recorded melting point by entry

Here is how some molecules turned out for melting point.
COC1=C(OC)C(=O)c2ccccc2C1=O ... 116 to 117 °C
N#CC1(c2ccc(F)cc2)CCC(N2CCC(C(=O)O)(c3ccccc3)CC2)CC1 (centres undefined) ... 281 °C
NC(=O)CN1C(=O)C[C@@H]2CCCCC[C@@H]21 (relative stereo) ... 140 to 142 °C
CC(=O)Nc1ccc(S(=O)(=O)Nc2nnc(CO)s2)cc1 ... 101 to 102 °C
Cc1cc(C)c(C=CC#N)c(Br)c1 ... 95 to 96 °C

Query: I would be grateful if you could share the reported melting point for Cc1cc(SC2=C(O)CC(CCc3ccsc3CO)(C(C)C)OC2=O)c(C(C)(C)C)cc1CO (centres undefined) .
Result: 87 to 90 °C

Query: I would be grateful if you could share the reported melting point for COC(=O)N1c2cc(OC)c(OC)cc2C(=O)CC1C (centres undefined) .
Result: 156 to 158 °C

Query: I would be grateful if you could share the reported melting point for Cc1nnc2n1-c1ccc(C#CCN3Cc4ccccc4C3=O)cc1C(c1ccccc1F)=NC2 .
Result: 165 to 168 °C

Query: I would be grateful if you could share the reported melting point for Cc1cc(-c2ccc(OC3SCC(O)C(O)C3O)cn2)ccn1 (centres undefined) .
Result: 214 °C

Query: I would be grateful if you could share the reported melting point for N#Cc1c(F)nn(-c2c(Cl)cc(C(F)(F)F)cc2Cl)c1N .
Result: 193 to 194 °C

Query: I would be grateful if you could share the reported melting point for CC(C)(C)c1ccc(Nc2nnc(Cc3ccc(O)nc3)c3ccccc23)cc1 .
Result: 134 to 135 °C

Query: I would be grateful if you could share the reported melting point for COc1ccc(C(=NOCC(=O)O)c2ccc(OC)cc2)cc1 .
Result: 105 to 107 °C

Query: I would be grateful if you could share the reported melting point for COc1ccccc1CNc1ccc2cc(Nc3nnc(C)o3)ccc2n1 .
Result: 183 °C

Query: I would be grateful if you could share the reported melting point for COc1cc(C(=O)CC(=O)c2ccccc2O)cc([N+](=O)[O-])c1OC .
Result: 188 to 189 °C

Query: I would be grateful if you could share the reported melting point for CC(C)(S)CN1CCN(Cc2ccc(O)cc2)CC1 .
Result: 81 °C

Query: I would be grateful if you could share the reported melting point for O=C(c1ccc(Cl)cc1)c1ccc2c(c1)Cc1ccccc1-2 .
Result: 183 °C

Query: I would be grateful if you could share the reported melting point for Brc1ccc(C=Cc2ccc(Br)cc2)cc1 .
Result: 213 °C

Query: I would be grateful if you could share the reported melting point for COc1ccc(-c2cnc3[nH]cc(C(=O)NC4CCN(C(C)=O)C4)c3n2)cc1OC (centres undefined) .
Result: 211 to 212 °C

Query: I would be grateful if you could share the reported melting point for Oc1ccc(-c2nn(-c3cc(F)ccc3F)c3cc(O)ccc23)c(O)c1 .
Result: 88 to 91 °C

Query: I would be grateful if you could share the reported melting point for CCCc1c(OCCCS(=O)(=O)c2nc3ccc(C(=O)O)cc3[nH]2)ccc(C(C)=O)c1O .
Result: 212 to 215 °C

Query: I would be grateful if you could share the reported melting point for CNC(=O)c1ccnc(NC(=O)N2CCC3(CCc4ccc(F)cc4O3)CC2)c1 .
Result: 177 to 179 °C

Query: I would be grateful if you could share the reported melting point for COC(=O)c1cccc(S(=O)(=O)N(C)C)c1C .
Result: 40 to 43 °C
